system_tested: HDM2 (truncated, residues 17 to 125, containing p53 binding surface) (Homo sapiens (Human), UniProt Q00987)
Sequence (Q00987 17-125): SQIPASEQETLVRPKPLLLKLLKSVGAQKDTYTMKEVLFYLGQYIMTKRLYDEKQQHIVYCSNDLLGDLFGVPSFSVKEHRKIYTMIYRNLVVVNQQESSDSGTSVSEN
experiment: HDM2 FRET assay (inhibition of binding of FITC labeled p53-site peptide to HDM2)
study_conditions: Table 16
metric_name: IC50 (nM)
Numbers only, in nM.

Answered examples (5):
{"compound": "COC(C)(C)C1CCCN1c1nc2nc(-c3noc(=O)[nH]3)nc(-c3cncc(Cl)c3)c2n1C[C@H]1CC[C@H](C)CC1 (single isomer, unassigned) [Example 16.73]", "scale_unit": "nM", "IC50": 1.97}
{"compound": "C[C@H]1CC[C@H](Cn2c(N3CCOC4CCCCC43)nc3nc(-c4noc(=O)[nH]4)nc(-c4cccc(Cl)c4)c32)CC1 (single isomer, unassigned) [Example 16.77]", "scale_unit": "nM", "IC50": 29.7}
{"compound": "C[C@H]1CC[C@H](Cn2c(N3CCCC4COCCC43)nc3nc(-c4noc(=O)[nH]4)nc(-c4cccc(Cl)c4)c32)CC1 (single isomer, unassigned)", "scale_unit": "nM", "IC50": 60.9}
{"compound": "Cc1noc(C2CCCN2c2nc3nc(-c4noc(=O)[nH]4)nc(-c4cncc(Cl)c4)c3n2C[C@H]2CC[C@H](C)CC2)n1 (mixture of isomers)", "scale_unit": "nM", "IC50": 1.48}
{"compound": "CO[C@H]1CCN(c2nc3nc(-c4n[nH]c(=O)o4)nc(-c4cncc(Cl)c4)c3n2C[C@H]2CC[C@H](C)CC2)[C@@H](C)C1 (racemic)", "scale_unit": "nM", "IC50": 67.2}

Would you kindly look at the next entry?
Give the reported IC50 for this compound. C[C@H]1CC[C@H](Cn2c(N3CCCC4COCCC43)nc3nc(-c4n[nH]c(=O)o4)nc(-c4cncc(Cl)c4)c32)CC1 (single isomer, unassigned) [Example 16.122]
203

* * *

system_tested: HDM2 (truncated, residues 17 to 125, containing p53 binding surface) (Homo sapiens (Human), UniProt Q00987)
experiment: HDM2 FRET assay (inhibition of binding of FITC labeled p53-site peptide to HDM2)
study_conditions: Table 23
metric_name: pIC50
Answers are plain numbers, as −log10 of the molar value.

Consider the worked cases shown below.
{"compound": "CC(F)(c1ncccc1F)c1nc2nc(-c3noc(=O)[nH]3)nc(-c3cncc(Cl)c3)c2n1C[C@H]1CC[C@H](C)CC1 (single isomer, unassigned) [Example 23.99]", "pIC50": 9.50}
{"compound": "COc1ccccc1C(C)(F)c1nc2nc(-c3noc(=O)[nH]3)nc(-c3cncc(Cl)c3)c2n1C[C@H]1CC[C@H](C)CC1 (single isomer, unassigned) [Example 23.26]", "pIC50": 8.27}
{"compound": "CC(F)(c1ncccc1F)c1nc2nc(-c3n[nH]c(=O)o3)nc(-c3cncc(Cl)c3)c2n1C[C@H]1CC[C@H](C)CC1 (single isomer, unassigned) [Example 23.84]", "pIC50": 7.78}

Please give pIC50, item by item, for the list that follows.
1. COC(C)(c1cccc(Cl)c1F)c1nc2nc(-c3n[nH]c(=O)o3)nc(-c3cncc(Cl)c3)c2n1C[C@H]1CC[C@H](C)CC1 (single isomer, unassigned) [Example 23.74]
2. CC(F)(c1c(F)cccc1F)c1nc2nc(-c3n[nH]c(=O)o3)nc(-c3cncc(Cl)c3)c2n1C[C@H]1CC[C@H](C)CC1 (single isomer, unassigned) [Example 23.81]

7.75
9.54
